system: Tetranychus urticae; test: Acaricidal activity against Tetranychus urticae (two-spotted spider mite) in compound treated kidney bean leaf assessed as mortality of egg at 24 degC measured after 1 week; format: functional; conditions: 168 h
Class (required): determined from LC50; valid ranges are lower range = under 10 nM, middle range = from 10 nM up to 1000 nM, upper range = 1000 nM and over

molecule="CCOc1cc(C(C)(C)C)ccc1C1COC(c2c(F)cccc2F)=N1 (stereo not drawn) [ETOXAZOLE]" assigned_class="middle range"
molecule="CCCCOc1cc(F)ccc1C1COC(c2c(F)cccc2F)=N1 (stereo not drawn)" assigned_class="lower range"
molecule="Cc1cccc(C2COC(c3c(F)cccc3F)=N2)c1 (stereo not drawn)" assigned_class="upper range"
molecule="CCc1cccc(C2COC(c3c(F)cccc3F)=N2)c1 (stereo not drawn)" assigned_class="upper range"
molecule="CC(C)Cc1ccc(C2COC(c3c(F)cccc3F)=N2)c(Cl)c1 (stereo not drawn)" assigned_class="lower range"

*Q* Which LC50 category applies to CCCCCCCc1ccc(C2COC(c3c(F)cccc3F)=N2)c(F)c1 (stereo not drawn) here?
*A* lower range

*Q* Which LC50 category applies to COc1cc(Cl)ccc1C1COC(c2c(F)cccc2F)=N1 (stereo not drawn) here?
*A* upper range

*Q* Which LC50 category applies to Fc1cccc(F)c1C1=NC(c2ccc(Br)cc2)CO1 (stereo not drawn) here?
*A* middle range

*Q* Which LC50 category applies to CCCCCCCCOc1ccc(C2COC(c3c(F)cccc3F)=N2)cc1 (stereo not drawn) here?
*A* lower range

*Q* Which LC50 category applies to CCCCCCCCc1ccc(C2COC(c3c(F)cccc3F)=N2)cc1 (stereo not drawn) here?
*A* lower range

*Q* Which LC50 category applies to CCCCCCCCCCOc1ccc(C2COC(c3c(F)cccc3F)=N2)cc1 (stereo not drawn) here?
*A* lower range

*Q* Which LC50 category applies to CCCCCCCCCCc1ccc(C2COC(c3c(F)cccc3F)=N2)c(OC)c1 (stereo not drawn) here?
*A* middle range

*Q* Which LC50 category applies to CCCCCCCCCCCCc1ccc(C2COC(c3c(F)cccc3F)=N2)c(Cl)c1 (stereo not drawn) here?
*A* upper range

====

tested on: Tetranychus urticae; test: Acaricidal activity against Tetranychus urticae (two-spotted spider mite) in compound treated kidney bean leaf assessed as mortality of egg at 24 degC measured after 1 week; assay type: functional; details: 168 h
Label YES when LC50 is strictly below 0.1 µM; at or above that, label NO.

Here's what some known entries look like.
molecule="CCCCCCc1ccc(C2COC(c3c(F)cccc3F)=N2)c(F)c1 (stereo not given)" assigned_class=YES
molecule="Fc1cccc(F)c1C1=NC(c2ccccc2Cl)CO1 (stereo not given)" assigned_class=NO

*Q* Criterion: LC50 strictly below 0.1 µM. Is it met by Fc1ccc(C2COC(c3c(F)cccc3F)=N2)cc1 (stereo not given) ?
*A* NO

*Q* Criterion: LC50 strictly below 0.1 µM. Is it met by CCCCCCc1ccc(C2COC(c3c(F)cccc3F)=N2)cc1 (stereo not given) ?
*A* YES

*Q* Criterion: LC50 strictly below 0.1 µM. Is it met by CCCCCCCCc1ccc(C2COC(c3c(F)cccc3F)=N2)c(C)c1 (stereo not given) ?
*A* YES

*Q* Criterion: LC50 strictly below 0.1 µM. Is it met by CCCCCCCCCCCCCCCc1ccc(C2COC(c3c(F)cccc3F)=N2)cc1 (stereo not given) ?
*A* YES

*Q* Criterion: LC50 strictly below 0.1 µM. Is it met by C[S+]([O-])c1ccc(C2COC(c3c(F)cccc3F)=N2)cc1 (stereo not given) ?
*A* NO

*Q* Criterion: LC50 strictly below 0.1 µM. Is it met by Cc1ccc(C2COC(c3c(F)cccc3F)=N2)c(C)c1 (stereo not given) ?
*A* NO

*Q* Criterion: LC50 strictly below 0.1 µM. Is it met by Fc1cccc(F)c1C1=NC(c2ccc(OCC(F)(F)F)cc2)CO1 (stereo not given) ?
*A* YES

*Q* Criterion: LC50 strictly below 0.1 µM. Is it met by Fc1cccc(F)c1C1=NC(c2ccc(Cl)cc2)CO1 (stereo not given) ?
*A* YES

*Q* Criterion: LC50 strictly below 0.1 µM. Is it met by CCCCCCCCCCCCc1ccc(C2COC(c3c(F)cccc3F)=N2)c(F)c1 (stereo not given) ?
*A* NO

*Q* Criterion: LC50 strictly below 0.1 µM. Is it met by CC(C)Oc1ccc(C2COC(c3c(F)cccc3F)=N2)cc1 (stereo not given) ?
*A* YES

*Q* Criterion: LC50 strictly below 0.1 µM. Is it met by CCCOc1cc(C(C)(C)C)ccc1C1COC(c2c(F)cccc2F)=N1 (stereo not given) ?
*A* YES

*Q* Criterion: LC50 strictly below 0.1 µM. Is it met by Fc1cc(Cl)ccc1C1COC(c2c(F)cccc2F)=N1 (stereo not given) ?
*A* YES

*Q* Criterion: LC50 strictly below 0.1 µM. Is it met by Cc1ccc(C2COC(c3c(F)cccc3F)=N2)cc1C (stereo not given) ?
*A* NO

*Q* Criterion: LC50 strictly below 0.1 µM. Is it met by CCOc1ccc(C2COC(c3c(F)cccc3F)=N2)cc1 (stereo not given) ?
*A* YES

*Q* Criterion: LC50 strictly below 0.1 µM. Is it met by Cc1cc(Cl)ccc1C1COC(c2c(F)cccc2F)=N1 (stereo not given) ?
*A* NO

*Q* Criterion: LC50 strictly below 0.1 µM. Is it met by CCOc1cc(Br)ccc1C1COC(c2c(F)cccc2F)=N1 (stereo not given) ?
*A* NO

*Q* Criterion: LC50 strictly below 0.1 µM. Is it met by CCOc1ccccc1C1COC(c2c(F)cccc2F)=N1 (stereo not given) ?
*A* NO

*Q* Criterion: LC50 strictly below 0.1 µM. Is it met by Fc1cccc(F)c1C1=NC(c2ccc(C(F)(F)F)cc2)CO1 (stereo not given) ?
*A* NO

====

system: Tetranychus urticae; experiment: Acaricidal activity against Tetranychus urticae (two-spotted spider mite) in compound treated kidney bean leaf assessed as mortality of egg at 24 degC measured after 1 week; assay type: functional; details: 168 h
result type: LC50 (nM)
Answers are plain numbers, in nM.

Recorded LC50, per entry:
molecule="CCCCc1ccc(C2COC(c3c(F)cccc3F)=N2)cc1 (stereo unspecified)" target_of_assay="Tetranychus urticae" units_of_measure=nM recorded_number=1.58
molecule="CCc1ccc(C2COC(c3c(F)cccc3F)=N2)c(Cl)c1 (stereo unspecified)" target_of_assay="Tetranychus urticae" units_of_measure=nM recorded_number=15.5
molecule="CCc1ccc(C2COC(c3c(F)cccc3F)=N2)cc1 (stereo unspecified)" target_of_assay="Tetranychus urticae" units_of_measure=nM recorded_number=17.4
molecule="Fc1cccc(F)c1C1=NC(c2ccc(Cl)cc2Cl)CO1 (stereo unspecified)" target_of_assay="Tetranychus urticae" units_of_measure=nM recorded_number=151
molecule="COc1ccccc1C1COC(c2c(F)cccc2F)=N1 (stereo unspecified)" target_of_assay="Tetranychus urticae" units_of_measure=nM recorded_number=174000
molecule="COc1cc(F)ccc1C1COC(c2c(F)cccc2F)=N1 (stereo unspecified)" target_of_assay="Tetranychus urticae" units_of_measure=nM recorded_number=1620
molecule="CC(C)(C)c1ccc(C2COC(c3c(F)cccc3F)=N2)cc1 (stereo unspecified)" target_of_assay="Tetranychus urticae" units_of_measure=nM recorded_number=1.58
molecule="CCOc1cc(C(C)C)ccc1C1COC(c2c(F)cccc2F)=N1 (stereo unspecified)" target_of_assay="Tetranychus urticae" units_of_measure=nM recorded_number=145
molecule="CCCCOc1cc(C(C)(C)C)ccc1C1COC(c2c(F)cccc2F)=N1 (stereo unspecified)" target_of_assay="Tetranychus urticae" units_of_measure=nM recorded_number=129
molecule="CCCCCCCCCCCCCOc1ccc(C2COC(c3c(F)cccc3F)=N2)cc1 (stereo unspecified)" target_of_assay="Tetranychus urticae" units_of_measure=nM recorded_number=11

# per-item lookup of LC50; items listed below
1. CCCCCCCCc1ccc(C2COC(c3c(F)cccc3F)=N2)c(F)c1 (stereo unspecified)
2. Fc1cccc(F)c1C1=NC(c2ccc(Cl)c(Cl)c2)CO1 (stereo unspecified)
3. CCCCCCCCCCc1ccc(C2COC(c3c(F)cccc3F)=N2)cc1 (stereo unspecified)
4. CCCCCCOc1cc(C(C)(C)C)ccc1C1COC(c2c(F)cccc2F)=N1 (stereo unspecified)
5. CCc1ccc(C2COC(c3c(F)cccc3F)=N2)c(F)c1 (stereo unspecified)
6. CCCCCCc1ccc(C2COC(c3c(F)cccc3F)=N2)cc1F (stereo unspecified)

*A*
1.29
1510
1.26
1200
1620
1380

====

tested on: Tetranychus urticae; assay: Acaricidal activity against Tetranychus urticae (two-spotted spider mite) in compound treated kidney bean leaf assessed as mortality of egg at 24 degC measured after 1 week; assay type: functional; settings: 168 h
result type: LC50 (nM)
One number for each entry, in nM.

Recorded LC50, per entry:
molecule="Fc1ccc(C2COC(c3c(F)cccc3F)=N2)c(Cl)c1 (stereo not given)" target_of_assay="Tetranychus urticae" result_type=LC50 recorded_number=1620
molecule="CCCCCc1ccc(C2COC(c3c(F)cccc3F)=N2)c(OCCC)c1 (stereo not given)" target_of_assay="Tetranychus urticae" result_type=LC50 recorded_number=12.9
molecule="Fc1ccc(C2COC(c3c(F)cccc3F)=N2)cc1F (stereo not given)" target_of_assay="Tetranychus urticae" result_type=LC50 recorded_number=1700
molecule="CCOc1cc(Cl)ccc1C1COC(c2c(F)cccc2F)=N1 (stereo not given)" target_of_assay="Tetranychus urticae" result_type=LC50 recorded_number=1480

# per-item lookup of LC50; items listed below
1. COc1cc(C(C)(C)C)ccc1C1COC(c2c(F)cccc2F)=N1 (stereo not given)
2. CCOc1cc(F)ccc1C1COC(c2c(F)cccc2F)=N1 (stereo not given)
3. CCCCCCc1ccc(C2COC(c3c(F)cccc3F)=N2)c(Cl)c1 (stereo not given)
4. Fc1ccc(C2COC(c3c(F)cccc3F)=N2)cc1Cl (stereo not given)
5. CCCCCCCCCCCCCCOc1ccc(C2COC(c3c(F)cccc3F)=N2)cc1 (stereo not given)
6. CCCCCCCCCCc1ccc(C2COC(c3c(F)cccc3F)=N2)c(F)c1 (stereo not given)

*A*
14.4
15.5
1.32
1620
107
12
